Test system: A549
Test: Antitumoral activity was assayed against A-549 cell line
Type: functional, cell-based
Conditions: Homo sapiens
measured-metric: IC50 (µM)
Numeric only. Scale: µM

Solved entries:
{"compound": "CC1=CCC2C(C)(C)CCC[C@]2(C)[C@H]1Cc1cc(O)ccc1O (stereo partly drawn)", "test-system": "A549", "units-text": "µM", "IC50": 0.79}
{"compound": "CC1=CCC2C(C)(C)CCC[C@]2(C)[C@H]1CC1=CC(=O)C=CC1=O (stereo partly drawn)", "test-system": "A549", "units-text": "µM", "IC50": 3.2}

Moving on to another compound below.
INPUT: Any idea what its IC50 is? The compound is CC1(C)CCC[C@@]2(C)C1CC[C@@]1(C)Oc3ccc(O)cc3C[C@@H]12 (stereo partly drawn)
OUTPUT: 15.9

* * *

Catalogue of IC50 values
Test system: SK-MEL-28
Experiment: Antitumoral activity was assayed against MEL-28 cell line
Format: functional, cell-based
Conditions: Homo sapiens
Numeric only. Scale: µM

Solved entries:
{"molecule": "CC1=CCC2C(C)(C)CCC[C@]2(C)[C@H]1Cc1cc(O)ccc1O (stereo partly drawn)", "units-text": "µM", "IC50": 0.79}
{"molecule": "CC1=CCC2C(C)(C)CCC[C@]2(C)[C@H]1CC1=CC(=O)C=CC1=O (stereo partly drawn)", "units-text": "µM", "IC50": 3.2}

Moving on to another molecule below.
INPUT: Any idea what its IC50 is? The molecule is CC1(C)CCC[C@@]2(C)C1CC[C@@]1(C)Oc3ccc(O)cc3C[C@@H]12 (stereo partly drawn)
OUTPUT: 15.9
